- TESTED SYSTEM: HLA-A*02:03
- PROCEDURE DETAILS: IEDB peptide-MHC binding, purified MHC/competitive/radioactivity; bounds were set here for any values at or beyond the usual limits of such assays
- ASSAY CONDITIONS: source organism: Lassa virus GA391
ENDPOINT NAME: pIC50
Give only the number. pIC50 is defined as minus log10 of concentration in molar units.

Returns the measured pIC50 for the input sequence. Input: "YLISIFLHL" 7.96

====

- TESTED SYSTEM: HLA-A*68:02
- PROCEDURE DETAILS: IEDB peptide-MHC binding, purified MHC/competitive/radioactivity; filed as Kd, often an IC50 or EC50 that approximates it; bounds were set here for any values at or beyond the usual limits of such assays
- ASSAY CONDITIONS: source organism: Lassa virus GA391
ENDPOINT NAME: Kd (µM)
Note: unit µM is implicit; provide only the numeric part.

Returns the measured Kd for the input sequence. Input: "YLISIFLHL" 6.66

====

Consider the following sequences; for each one, report its pIC50.
- TESTED SYSTEM: HLA-A*02:01
- PROCEDURE DETAILS: IEDB peptide-MHC binding, purified MHC/competitive/radioactivity; bounds were set here for any values at or beyond the usual limits of such assays
- ASSAY CONDITIONS: source organism: Lassa virus Josiah
Give only the number. pIC50 is defined as minus log10 of concentration in molar units.

Returns the measured pIC50 for the input sequence. Input: "LIALSVLAV" 6.99

Returns the measured pIC50 for the input sequence. Input: "YLISIFLHL" 7.85

Returns the measured pIC50 for the input sequence. Input: "GLYNFATCGL" 7.51

Returns the measured pIC50 for the input sequence. Input: "LMSIISTFHL" 6.95

Returns the measured pIC50 for the input sequence. Input: "ILAADLEKL" 7.04

Returns the measured pIC50 for the input sequence. Input: "GLYKQPGVPV" 7.05

Returns the measured pIC50 for the input sequence. Input: "SLYKGVYEL" 7.33

Returns the measured pIC50 for the input sequence. Input: "VLIALSVLAV" 6.31

Returns the measured pIC50 for the input sequence. Input: "IISTFHLSI" 6.48

====

- TESTED SYSTEM: HLA-A*02:06
- PROCEDURE DETAILS: IEDB peptide-MHC binding, purified MHC/competitive/radioactivity; bounds were set here for any values at or beyond the usual limits of such assays
- ASSAY CONDITIONS: source organism: Lassa virus Josiah
ENDPOINT NAME: pIC50
Give only the number. pIC50 is defined as minus log10 of concentration in molar units.

Request: pIC50, test system HLA-A*02:06, entry "SLYKGVYEL" 6.40

====

- TESTED SYSTEM: HLA-A*02:02
- PROCEDURE DETAILS: IEDB peptide-MHC binding, purified MHC/competitive/radioactivity; bounds were set here for any values at or beyond the usual limits of such assays
- ASSAY CONDITIONS: source organism: Lassa virus GA391
ENDPOINT NAME: IC50 (nM)
Note: unit nM is implicit; provide only the numeric part.

Returns the measured IC50 for the input sequence. Input: "YLISIFLHL" 173

====

- TESTED SYSTEM: HLA-A*02:06
- PROCEDURE DETAILS: IEDB peptide-MHC binding, purified MHC/competitive/radioactivity; bounds were set here for any values at or beyond the usual limits of such assays
- ASSAY CONDITIONS: source organism: Lassa virus GA391
ENDPOINT NAME: IC50 (nM)
Note: unit nM is implicit; provide only the numeric part.

Returns the measured IC50 for the input sequence. Input: "YLISIFLHL" 10

====

- TESTED SYSTEM: HLA-A*68:02
- PROCEDURE DETAILS: IEDB peptide-MHC binding, purified MHC/competitive/radioactivity; filed as Kd, often an IC50 or EC50 that approximates it; bounds were set here for any values at or beyond the usual limits of such assays
- ASSAY CONDITIONS: source organism: Lassa virus Josiah
pKd: −log10 of the molar value.
ENDPOINT NAME: pKd

Request: pKd, test system HLA-A*68:02, entry "SLYKGVYEL" ≤ 5.00
